- Test system: Streptococcus pyogenes
- assayMethodText: Antibacterial activity was determined against gram positive organism, Streptococcus pyogenes (C203)
- Type: functional
Labelling: MIC reported below 3 µg/mL becomes criterion met; at or above becomes criterion not met.

Observe how each entry below is paired with its result.
>>> df
                                   compound   assignedcategory
0  CCc1c(F)c(N2CCNCC2)cc2c1c(=O)c(C(=O)O)cn2C1CC1  criterion not met
1  CCn1cc(C(=O)O)c(=O)c2c(C)c(F)c(N3CCC(N)C3)cc21 (stereo not given)  criterion not met

For CCn1cc(C(=O)O)c(=O)c2c(C)c(F)c(N3CCNCC3)cc21 , is the recorded MIC below the cut-off of 3 µg/mL?
criterion not met

And what about the compound Cc1c(F)c(N2CCNCC2)cc2c1c(=O)c(C(=O)O)cn2C1CC1 ?
criterion met

And what about the compound CCn1cc(C(=O)O)c(=O)c2cc(F)c(N3CCNCC3)c(F)c21 ?
criterion not met

And what about the compound O=C(O)c1cn(C2CC2)c2c(Cl)c(N3CCNCC3)c(F)cc2c1=O ?
criterion met

And what about the compound Cc1c(F)c(N2CCNCC2)c(F)c2c1c(=O)c(C(=O)O)cn2C1CC1 ?
criterion met

====

- assayMethodText: MIC ratio measured as the mean MICs of gram-positive bacteria
- Format: functional
Output Fulfilled for Ratio not less than 0.1; output Not fulfilled otherwise.

>>> print(df.to_string())
                                   molecule  assignedcategory
0  O=C(O)c1cn(C2CC2)c2c(Cl)c(N3CCNCC3)c(F)cc2c1=O         Fulfilled
1  CCn1cc(C(=O)O)c(=O)c2c(C)c(F)c(N3CCNCC3)c(F)c21         Fulfilled
2  NC1CCN(c2cc3c(cc2F)c(=O)c(C(=O)O)cn3-c2ccc(F)cc2F)C1 (stereo not drawn)     Not fulfilled
3  NC1CCN(c2cc3c(cc2F)c(=O)c(C(=O)O)cn3C2CC2)C1 (stereo not drawn)     Not fulfilled
4  CCn1cc(C(=O)O)c(=O)c2c(C)c(F)c(N3CCNCC3)cc21         Fulfilled
5  Cc1c(F)c(N2CCNC(C)C2)cc2c1c(=O)c(C(=O)O)cn2C1CC1 (stereo not drawn)         Fulfilled
6  Cc1c(F)c(N2CCC(C)(CN)C2)cc2c1c(=O)c(C(=O)O)cn2C1CC1 (stereo not drawn)     Not fulfilled
7  Cc1c(F)c(N2CCC(N)C2)cc2c1c(=O)c(C(=O)O)cn2-c1ccc(F)cc1F (stereo not drawn)     Not fulfilled
8  O=C(O)c1cn(C2CC2)c2c(F)c(N3CCNCC3)c(F)cc2c1=O         Fulfilled
9  CCNCC1CCN(c2c(F)cc3c(=O)c(C(=O)O)cn(C4CC4)c3c2F)C1 (stereo not drawn)     Not fulfilled

Determine whether measured Ratio meets or exceeds 0.1 for NC1CCN(c2c(F)cc3c(=O)c(C(=O)O)cn(C4CC4)c3c2F)C1 (stereo not drawn)
Not fulfilled

And what about the molecule CCNCC1CCN(c2cc3c(cc2F)c(=O)c(C(=O)O)cn3CC)C1 (stereo not drawn) ?
Fulfilled

====

- assayMethodText: MIC ratio measured as the mean MICs of gram-negative bacteria
- Format: functional
Can you tell me Ratio for the items I'm about to list?

// for each compound below, give its Ratio
1. CC1CN(c2c(F)cc3c(=O)c(C(=O)O)cn(C4CC4)c3c2F)CCN1 (stereo unspecified)
2. Cc1c(F)c(N2CCC(C)(CN)C2)c(F)c2c1c(=O)c(C(=O)O)cn2C1CC1 (stereo unspecified)
3. Cc1c(F)c(N2CCNCC2)c(Cl)c2c1c(=O)c(C(=O)O)cn2C1CC1

[0.066, 0.13, 0.087]

====

- System: Pseudomonas aeruginosa
- assayMethodText: Antibacterial activity was determined against gram negative organism, Pseudomonas aeruginosa (UI-18)
- Format: functional
observedProperty: MIC (mg/L)
Give bare numbers, in mg/L.

>>> df
                                   compound  observedproperty  measvalue
0  Cc1c(F)c(N2CCC(C)(CN)C2)c(F)c2c1c(=O)c(C(=O)O)cn2C1CC1 (stereo not drawn)               MIC        0.8
1  Cc1c(F)c(N2CCNC(C)C2)cc2c1c(=O)c(C(=O)O)cn2C1CC1 (stereo not drawn)               MIC        0.8
2  CCn1cc(C(=O)O)c(=O)c2cc(F)c(N3CCNCC3)c(F)c21               MIC        0.8

// for each compound below, give its MIC
1. CCn1cc(C(=O)O)c(=O)c2cc(F)c(N3CCC(N)C3)c(F)c21 (stereo not drawn)
2. O=C(O)c1cn(-c2ccc(F)cc2F)c2cc(N3CCNCC3)c(F)cc2c1=O
3. CCNCC1CCN(c2cc3c(cc2F)c(=O)c(C(=O)O)cn3CC)C1 (stereo not drawn)

1. 0.4
2. 0.8
3. 3.1

// for each compound below, give its MIC
1. Cc1c(F)c(N2CCNC(C)C2)cc2c1c(=O)c(C(=O)O)cn2-c1ccc(F)cc1F (stereo not drawn)
2. O=C(O)c1cn(C2CC2)c2cc(N3CCNCC3)c(F)cc2c1=O
3. Cc1c(F)c(N2CCC(N)C2)cc2c1c(=O)c(C(=O)O)cn2-c1ccc(F)cc1F (stereo not drawn)
4. CC1CN(c2c(F)cc3c(=O)c(C(=O)O)cn(C4CC4)c3c2F)CCN1 (stereo not drawn)
5. CCNCC1CCN(c2cc3c(c(C)c2F)c(=O)c(C(=O)O)cn3-c2ccc(F)cc2F)C1 (stereo not drawn)

1: 1.6; 2: 0.4; 3: 0.8; 4: 0.4; 5: 3.1

// for each compound below, give its MIC
1. Cc1c(F)c(N2CCNCC2)cc2c1c(=O)c(C(=O)O)cn2-c1ccc(F)cc1F
2. CCn1cc(C(=O)O)c(=O)c2c(C)c(F)c(N3CC(C)NC(C)C3)cc21 (stereo not drawn)

[0.8, 3.1]

====

Can you tell me log10(MIC) for the items I'm about to list?
- Tested on: Streptococcus pyogenes
- assayMethodText: Antibacterial activity was determined against gram positive organism, Streptococcus pyogenes (C203)
- Type: functional
All values: log10 MIC [µg/mL].

# count of solved cases: 5
In [3]: df
Out[3]:
                                   compound  measvalue
0  CCn1cc(C(=O)O)c(=O)c2c(C)c(F)c(N3CC(C)NC(C)C3)cc21 (centres undefined)       0.49
1  CCn1cc(C(=O)O)c(=O)c2cc(F)c(N3CC(C)NC(C)C3)cc21 (centres undefined)       0.20
2  CC1CN(c2c(F)cc3c(=O)c(C(=O)O)cn(C4CC4)c3c2F)CCN1 (centres undefined)      -0.40
3  CCn1cc(C(=O)O)c(=O)c2cc(F)c(N3CCC(N)C3)c(F)c21 (centres undefined)      -0.70
4  O=C(O)c1cn(C2CC2)c2cc(N3CCNCC3)c(F)cc2c1=O [CIPROFLOXACIN]      -0.10

// for each compound below, give its log10(MIC)
1. Cc1c(F)c(N2CCNC(C)C2)cc2c1c(=O)c(C(=O)O)cn2C1CC1 (centres undefined) [GREPAFLOXACIN]
2. CCNCC1CCN(c2cc3c(cc2F)c(=O)c(C(=O)O)cn3CC)C1 (centres undefined)

1: -1.30; 2: -1.00

// for each compound below, give its log10(MIC)
1. Cc1c(F)c(N2CCC(N)C2)cc2c1c(=O)c(C(=O)O)cn2-c1ccc(F)cc1F (centres undefined)
2. Cc1c(F)c(N2CCC(N)C2)c(Cl)c2c1c(=O)c(C(=O)O)cn2C1CC1 (centres undefined)

1: -1.30; 2: -1.30

====

- assayMethodText: MIC ratio measured as the mean MICs of gram-positive bacteria
- Format: functional
Can you tell me Ratio for the items I'm about to list?
One number for each entry.

# count of solved cases: 10
>>> print(df.to_string())
                                   molecule  measvalue
0  Cc1c(F)c(N2CCC(C)(CN)C2)c(F)c2c1c(=O)c(C(=O)O)cn2C1CC1 (stereo unspecified)     0.0053
1  Cc1c(F)c(N2CCNCC2)c(Cl)c2c1c(=O)c(C(=O)O)cn2C1CC1      0.087
2  Cc1c(F)c(N2CCNCC2)cc2c1c(=O)c(C(=O)O)cn2C1CC1      0.057
3  CCn1cc(C(=O)O)c(=O)c2cc(F)c(N3CCC(N)C3)cc21 (stereo unspecified)        0.4
4  Cc1c(F)c(N2CCC(N)C2)cc2c1c(=O)c(C(=O)O)cn2C1CC1 (stereo unspecified)       0.05
5  CCn1cc(C(=O)O)c(=O)c2cc(F)c(N3CCNCC3)cc21       0.61
6  CCc1c(F)c(N2CCC(N)C2)cc2c1c(=O)c(C(=O)O)cn2C1CC1 (stereo unspecified)       5.45
7  O=C(O)c1cn(-c2ccc(F)cc2F)c2cc(N3CCNCC3)c(F)cc2c1=O       0.17
8  CC1CN(c2cc3c(cc2F)c(=O)c(C(=O)O)cn3-c2ccc(F)cc2F)CCN1 (stereo unspecified)      0.087
9  CCn1cc(C(=O)O)c(=O)c2c(C)c(F)c(N3CCC(N)C3)cc21 (stereo unspecified)       1.38

// below: Ratio requested for another molecule
Value lookup for Ratio; key = CC1CN(c2cc3c(cc2F)c(=O)c(C(=O)O)cn3C2CC2)CCN1 (stereo unspecified)
0.23

Cited source for all entries: ChEMBL document CHEMBL1125920
